Each recorded value in this set is attributed to paper PMC11665983.

system-under-test: cystic fibrosis transmembrane conductance regulator (CFTR) (Homo sapiens, UniProt P13569)
Sequence (P13569 whole entry): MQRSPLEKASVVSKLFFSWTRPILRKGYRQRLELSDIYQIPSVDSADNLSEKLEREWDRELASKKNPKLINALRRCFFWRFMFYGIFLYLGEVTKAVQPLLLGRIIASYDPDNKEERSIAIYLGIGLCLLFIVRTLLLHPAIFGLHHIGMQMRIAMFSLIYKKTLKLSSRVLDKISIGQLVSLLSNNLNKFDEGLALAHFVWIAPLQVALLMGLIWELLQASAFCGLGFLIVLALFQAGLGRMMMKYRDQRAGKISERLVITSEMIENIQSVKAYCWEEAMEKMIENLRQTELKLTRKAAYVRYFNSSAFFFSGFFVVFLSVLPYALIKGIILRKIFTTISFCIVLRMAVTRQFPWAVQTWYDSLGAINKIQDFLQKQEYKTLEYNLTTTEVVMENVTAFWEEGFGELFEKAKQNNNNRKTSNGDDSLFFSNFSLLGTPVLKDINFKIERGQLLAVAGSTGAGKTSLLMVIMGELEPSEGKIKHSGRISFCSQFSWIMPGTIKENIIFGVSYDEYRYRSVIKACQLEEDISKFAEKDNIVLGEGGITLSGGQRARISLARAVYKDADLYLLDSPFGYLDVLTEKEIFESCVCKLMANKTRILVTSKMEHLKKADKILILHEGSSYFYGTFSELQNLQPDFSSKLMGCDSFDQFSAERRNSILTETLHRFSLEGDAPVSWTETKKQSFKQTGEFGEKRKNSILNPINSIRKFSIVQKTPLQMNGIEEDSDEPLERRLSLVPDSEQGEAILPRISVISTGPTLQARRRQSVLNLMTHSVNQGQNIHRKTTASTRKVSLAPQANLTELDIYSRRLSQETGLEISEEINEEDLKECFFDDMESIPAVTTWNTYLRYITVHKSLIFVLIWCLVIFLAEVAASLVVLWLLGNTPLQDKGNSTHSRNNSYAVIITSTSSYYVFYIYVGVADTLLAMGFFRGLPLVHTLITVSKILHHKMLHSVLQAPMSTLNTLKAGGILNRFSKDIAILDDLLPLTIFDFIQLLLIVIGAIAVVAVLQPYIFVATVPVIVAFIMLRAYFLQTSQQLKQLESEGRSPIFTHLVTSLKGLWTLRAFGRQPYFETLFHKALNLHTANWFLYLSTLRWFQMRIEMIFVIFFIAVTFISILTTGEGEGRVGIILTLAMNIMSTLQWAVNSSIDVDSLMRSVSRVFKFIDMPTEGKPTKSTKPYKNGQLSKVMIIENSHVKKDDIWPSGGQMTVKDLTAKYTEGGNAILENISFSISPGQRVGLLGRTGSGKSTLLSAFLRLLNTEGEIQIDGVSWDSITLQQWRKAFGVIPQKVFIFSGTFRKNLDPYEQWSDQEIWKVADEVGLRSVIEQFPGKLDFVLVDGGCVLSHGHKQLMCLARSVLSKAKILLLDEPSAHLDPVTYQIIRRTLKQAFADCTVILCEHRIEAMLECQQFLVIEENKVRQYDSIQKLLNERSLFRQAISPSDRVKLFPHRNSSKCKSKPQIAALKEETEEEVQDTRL
measurement-notes: CPT-cAMP-stimulated apical chloride current in basolaterally permeabilized T84 monolayers (endogenous CFTR); genistein-stimulated current also inhibited (IC50 […])
measured-quantity: IC50 (nM)
Entry rule: numbers only, all in nM.

Q. Entry C/C=C(\C)c1c(Cl)c(O)c(C)c2c1Oc1c(Cl)c(O)c(Cl)c(C)c1C(=O)O2 [N9, nornidulin] : reported IC50 = ?
A. 1030
